Origin of the recorded values: the METLIN SMRT retention time set (Domingo-Almenara et al. 2019)

RP-LC retention time by entry:
ASSAY_TEXT: gradient 5% acetonitrile 3 min, to 50% in 2 min, to 85% in 15 min, held 3 min, 100 µL/min
RECORDED_CONDITIONS: column: Zorbax Extend-C18 2.1 x 50 mm; eluents: water / acetonitrile, 0.1% formic acid
MEASURED_ENDPOINT: RP-LC retention time (s)

[[record]]
compound = "Cc1cc(C)c(NC(=O)Cn2cc3c(n2)CCCC3)c(C)c1"
endpoint_result = 969

[[record]]
compound = "COc1ccc(CC(=O)N2CCN(c3cc(C)n4c(C)nnc4n3)CC2)cc1Cl"
endpoint_result = 614

[[record]]
compound = "COCCc1noc(-c2cnc3nc(C)ccc3c2Nc2ccc(F)cc2)n1"
endpoint_result = 688

[[record]]
compound = "Cc1noc(C)c1-c1ccc(S(=O)(=O)N2CCCCC2)cc1"
endpoint_result = 961

[[record]]
compound = "C=CCn1c(=O)c2ccccc2n(Cc2nc(-c3cccc(Br)c3)no2)c1=O"
endpoint_result = 1140

[[record]]
compound = "Cc1noc(C)c1CC(=O)NCC12CCC=C1NC(=O)CC2 (centres undefined)"
endpoint_result = 632

[[record]]
compound = "COc1ccc(N2CCN(S(=O)(=O)c3cc(-c4nnc(C5CC5)o4)co3)CC2)cc1"
endpoint_result = 909

[[record]]
compound = "O=C(O)[C@@H]1CN(Cc2ccccc2)C[C@@H]1C(=O)N1CCc2ccccc21"
endpoint_result = 641

[[record]]
compound = "COc1ccc(NC(=O)Cn2nc3c(Oc4ccc(Cl)cc4)nccn3c2=O)cc1"
endpoint_result = 832


====

ASSAY_TEXT: gradient 5% acetonitrile 3 min, to 50% in 2 min, to 85% in 15 min, held 3 min, 100 µL/min
RECORDED_CONDITIONS: column: Zorbax Extend-C18 2.1 x 50 mm; eluents: water / acetonitrile, 0.1% formic acid
Rule: RP-LC retention time under 800 s gives Not fulfilled, otherwise Fulfilled.

[[record]]
compound = "COc1ccccc1NS(=O)(=O)c1cc2c(s1)CCN(C(=O)C1CCC1)C2"
class_assignment = "Fulfilled"

[[record]]
compound = "Cc1cccc(OCC(=O)N2CC(CN(C)C)C3(CCOCC3)C2)c1 (centres undefined)"
class_assignment = "Not fulfilled"

[[record]]
compound = "Cc1nn(-c2ccc(F)cc2)c(C)c1S(=O)(=O)N1CCN(c2ccccn2)CC1"
class_assignment = "Not fulfilled"

[[record]]
compound = "Cc1cc(N2CCOCC2)nc(N2CCN(C(=O)c3ccc(C(C)(C)C)cc3)CC2)n1"
class_assignment = "Not fulfilled"

[[record]]
compound = "Cc1ccc(-c2cnc(N3CCCC(C(=O)NCCC4=CCCCC4)C3)nc2)cc1 (centres undefined)"
class_assignment = "Fulfilled"

[[record]]
compound = "O=C(NCc1ccccn1)C(=O)NCC1OCCN1S(=O)(=O)c1cccs1 (centres undefined)"
class_assignment = "Not fulfilled"

[[record]]
compound = "Cc1ccc(NC(=O)Cn2nc3c(N4CCCCCC4)nccn3c2=O)c(C)c1"
class_assignment = "Not fulfilled"

[[record]]
compound = "O=C(Nc1ccnn1Cc1ccco1)c1cc(=O)c2cc(Cl)ccc2o1"
class_assignment = "Fulfilled"

[[record]]
compound = "CN(C)C(=O)c1ccc2c(c1)nnn2CCNC(=O)Nc1ccccc1"
class_assignment = "Not fulfilled"

[[record]]
compound = "O=C(Cn1c(=O)c2cccn2c2ccc(F)cc21)NCCN1CCCCCC1"
class_assignment = "Not fulfilled"

[[record]]
compound = "CN1CCN(CCNC(=O)CCc2c(-c3ccc(Br)cc3)nc3ccccn23)CC1"
class_assignment = "Not fulfilled"

[[record]]
compound = "Cc1nc(CSc2ncnc3sc(C)c(C)c23)cs1"
class_assignment = "Fulfilled"

[[record]]
compound = "Cc1nc2c(ccc3nc(NC(=O)c4ccc(N5C(=O)CCC5=O)cc4)sc32)s1"
class_assignment = "Not fulfilled"

[[record]]
compound = "CCN1C(=O)c2cccnc2Sc2cc(NC(=O)c3ccccc3C(F)(F)F)ccc21"
class_assignment = "Fulfilled"

[[record]]
compound = "Cc1cccc(NC(=O)CSc2cc(N3CCCC(C)C3)ncn2)c1 (centres undefined)"
class_assignment = "Fulfilled"

[[record]]
compound = "Fc1ccc(-c2nc3cnccn3c2Nc2ccc(Cl)cc2)cc1"
class_assignment = "Fulfilled"

[[record]]
compound = "CCn1c(N2CCCC(C(=O)NCc3cccnc3)C2)cc(=O)n(C)c1=O (centres undefined)"
class_assignment = "Not fulfilled"

[[record]]
compound = "CCn1c(=O)c(C)nc2cc(-c3noc(-c4ccc(C)cc4)n3)ccc21"
class_assignment = "Fulfilled"

[[record]]
compound = "CCCCOC(=O)c1ccc(NC(=O)c2c(OCC)cc(=O)n3c2CCCC3)cc1"
class_assignment = "Fulfilled"

[[record]]
compound = "CC(=O)Nc1nsc(N2CCC(C(=O)NCc3cc(F)cc(F)c3)CC2)n1"
class_assignment = "Not fulfilled"

[[record]]
compound = "O=C(NCc1ccco1)c1ccc(-c2noc(C3CC3)n2)cc1"
class_assignment = "Fulfilled"

[[record]]
compound = "c1ccc(-c2nnc(-c3ccncc3)o2)cc1"
class_assignment = "Not fulfilled"

[[record]]
compound = "CCOc1ccc(CNC(=O)c2c(C)sc3ccn(CC)c(=O)c23)cc1"
class_assignment = "Fulfilled"

[[record]]
compound = "COc1ccc(S(=O)(=O)NCc2cccnc2-c2ccc(C)cc2)cc1Cl"
class_assignment = "Not fulfilled"

[[record]]
compound = "O=C(NCCN1CCCCCC1)c1nc(-c2ccnc(N3CCCCC3)c2)no1"
class_assignment = "Not fulfilled"

[[record]]
compound = "Cc1ccc(C(=O)N2CCC3(CC2)N=C(c2ccc(Br)cc2)NO3)cc1"
class_assignment = "Fulfilled"

[[record]]
compound = "Cc1cc(C)cc(NC(=O)C2CCCN(c3nc4ccsc4c(=O)n3-c3cccc(C)c3)C2)c1 (centres undefined)"
class_assignment = "Fulfilled"

[[record]]
compound = "CCOC(=O)C1CCN(C(=O)c2nc3ccccn3c2-c2ccsc2)CC1"
class_assignment = "Not fulfilled"

[[record]]
compound = "O=C(Nc1ccccc1)C1CCCN(c2nc3ccsc3c(=O)n2Cc2ccc(F)cc2)C1 (centres undefined)"
class_assignment = "Fulfilled"

[[record]]
compound = "O=C(CN1c2ccc(F)cc2-c2ccccc2S1(=O)=O)Nc1cccnc1"
class_assignment = "Not fulfilled"

[[record]]
compound = "COc1cc(OC)cc(C(=O)N2CCC3(C2)C(=O)Nc2ccc(OC)cc23)c1 (centres undefined)"
class_assignment = "Not fulfilled"

[[record]]
compound = "CCOC(=O)c1noc2nc(C)nc(Nc3ccc(F)cc3)c12"
class_assignment = "Fulfilled"

[[record]]
compound = "COc1ccc(Cl)cc1NC(=O)NCCn1c(-c2ccncc2)nc2cccnc21"
class_assignment = "Not fulfilled"


====

ASSAY_TEXT: gradient 5% acetonitrile 3 min, to 50% in 2 min, to 85% in 15 min, held 3 min, 100 µL/min
RECORDED_CONDITIONS: column: Zorbax Extend-C18 2.1 x 50 mm; eluents: water / acetonitrile, 0.1% formic acid
Threshold 800 s: RP-LC retention time strictly smaller gives fulfilled, otherwise not fulfilled.

[[record]]
compound = "Cc1ccc2oc(-c3nnc(C(=O)NCCN4CCCCCC4)o3)c(C)c2c1"
class_assignment = "fulfilled"

[[record]]
compound = "O=C(NCCc1ccc(Cl)cc1)C(=O)c1ccc[nH]1"
class_assignment = "not fulfilled"

[[record]]
compound = "Cn1cc(C(CNC(=O)Nc2ccccc2F)c2cccnc2)c2ccccc21 (stereo not drawn)"
class_assignment = "fulfilled"

[[record]]
compound = "O=C(c1cccn1Cc1noc(-c2ccc(Cl)cc2)n1)N1CCCCCC1"
class_assignment = "not fulfilled"

[[record]]
compound = "COc1ccc(CN2C[C@@H]3C(=O)N(Cc4ccc5c(c4)OCO5)C(=O)[C@@H]3C2)cc1OC"
class_assignment = "fulfilled"

[[record]]
compound = "CC1CCCCN1CCCNC(=O)C1CCCN(c2ncnc3c2nc2n3CCCCC2)C1 (stereo not drawn)"
class_assignment = "fulfilled"

[[record]]
compound = "COc1ccccc1CN[C@@H]1CCCN[C@@H]1c1ccccc1"
class_assignment = "fulfilled"

[[record]]
compound = "CC1=C(c2cccc(Cl)c2)S(=O)(=O)N=C1N1CCC(NC(=O)C2CCCO2)CC1 (stereo not drawn)"
class_assignment = "fulfilled"

[[record]]
compound = "CCOCC(=O)N1C[C@H]2C[C@H](C1)[C@H]1CCCC(=O)N1C2"
class_assignment = "fulfilled"

[[record]]
compound = "Cc1cccc(NC(=O)CS(=O)(=O)Cc2ccccc2)n1"
class_assignment = "fulfilled"

[[record]]
compound = "CC(C)NC(=O)N1CCC(Oc2ccccc2)C1 (stereo not drawn)"
class_assignment = "fulfilled"

[[record]]
compound = "CCc1ccc(-c2cn3cc(C(=O)NC4CC4)ccc3n2)cc1"
class_assignment = "fulfilled"

[[record]]
compound = "CCCNC(=O)C1CCCN(c2nc3ncn(CC(=O)Nc4ccc(Cl)cc4)c(=O)c3s2)C1 (stereo not drawn)"
class_assignment = "fulfilled"

[[record]]
compound = "Cc1sc(-c2noc(C(C)C)n2)cc1S(=O)(=O)N1CCC(C(=O)NCc2cccs2)CC1"
class_assignment = "not fulfilled"

[[record]]
compound = "CN(CCc1noc(-c2ccccc2)n1)C(=O)Nc1cccc(Br)c1"
class_assignment = "not fulfilled"

[[record]]
compound = "COc1ccc(F)cc1S(=O)(=O)N1CCC(F)(c2nc(CC(C)C)no2)CC1"
class_assignment = "not fulfilled"

[[record]]
compound = "Cc1ccc(F)c2c(=O)c3c([nH]c12)CCN(CC(=O)Nc1ccc2c(c1)OCO2)C3"
class_assignment = "fulfilled"

[[record]]
compound = "O=C(NCc1ccc(F)cc1)N1CCCC1c1nc(-c2ccc(F)cc2F)no1 (stereo not drawn)"
class_assignment = "not fulfilled"

[[record]]
compound = "CCn1cnc(S(=O)(=O)N2CCC(C(=O)Nc3cc(OC)cc(OC)c3)CC2)c1"
class_assignment = "fulfilled"

[[record]]
compound = "O=C(CCn1cnc2c(cnn2-c2ccccc2)c1=O)N1CCN(C(=O)c2ccco2)CC1"
class_assignment = "fulfilled"

[[record]]
compound = "CCCn1cc(S(=O)(=O)Nc2cc(C)ccc2C)c2cccnc21"
class_assignment = "not fulfilled"

[[record]]
compound = "Cn1nc(CN2CCCC2)c2c1CCN(S(=O)(=O)c1ccc(C(F)(F)F)cc1)C2"
class_assignment = "fulfilled"

[[record]]
compound = "Cc1ccc(NC(=O)c2ccc3[nH]c4c(c3c2)CN(C(=O)C2CCC2)CC4)cc1"
class_assignment = "not fulfilled"

[[record]]
compound = "O=C(Cc1c[nH]c2ccccc12)N1CCN(C(=O)c2cc(-c3ccncc3)n[nH]2)CC1"
class_assignment = "fulfilled"

[[record]]
compound = "CCCn1ncc(N2CCC(C(=O)NC(C)c3cccs3)CC2)cc1=O (stereo not drawn)"
class_assignment = "fulfilled"

[[record]]
compound = "Cc1ccc(-c2nc3cnccn3c2Nc2ccc(Br)cc2)cc1"
class_assignment = "not fulfilled"

[[record]]
compound = "CCCc1noc(-c2ccnc(-n3cnc(C(=O)N4CCOCC4)c3)c2)n1"
class_assignment = "fulfilled"

[[record]]
compound = "CCn1c(=O)c(N2CCN(C(=O)NCCc3ccccc3)CC2)nc2ccccc21"
class_assignment = "not fulfilled"

[[record]]
compound = "Cc1cc(C)n(Cc2nc(-c3ccc(NC(=O)Cc4ccccc4F)cc3)oc2C)n1"
class_assignment = "not fulfilled"

[[record]]
compound = "Cc1c(Cl)cccc1NC(=O)N1CCC(c2cc(N)on2)CC1"
class_assignment = "fulfilled"

[[record]]
compound = "O=C(CC1CCN(C(=O)Nc2ccc3c(c2)OCO3)CC1)N1CCCCC1"
class_assignment = "fulfilled"

[[record]]
compound = "O=C(C1=CN(c2cc(F)cc(F)c2)c2ccccc2S1(=O)=O)N1CCCCC1"
class_assignment = "not fulfilled"

[[record]]
compound = "CCC1Oc2ccc(S(=O)(=O)N3CCC(C(=O)NC4CCCCCCC4)CC3)cc2NC1=O (stereo not drawn)"
class_assignment = "not fulfilled"

